TEST: self-splicing fitness, log relative to wild type (ln ratio); higher = more splicing; Tetrahymena group I intron in knt gene, E. coli kanamycin selection, DiMSum; sequences stand for … in CUCUCU…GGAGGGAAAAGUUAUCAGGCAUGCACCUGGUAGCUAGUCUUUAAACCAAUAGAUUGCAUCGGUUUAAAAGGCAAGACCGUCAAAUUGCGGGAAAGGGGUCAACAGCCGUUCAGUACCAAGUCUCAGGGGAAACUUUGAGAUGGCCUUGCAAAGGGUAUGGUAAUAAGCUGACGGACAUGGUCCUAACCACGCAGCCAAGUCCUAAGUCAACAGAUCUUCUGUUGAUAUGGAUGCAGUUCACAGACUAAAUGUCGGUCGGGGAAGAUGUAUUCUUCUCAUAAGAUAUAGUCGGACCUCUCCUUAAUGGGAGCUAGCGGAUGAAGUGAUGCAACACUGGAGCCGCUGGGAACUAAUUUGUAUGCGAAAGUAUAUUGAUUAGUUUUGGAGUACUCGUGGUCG;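 note: selection with 25 µg/mL kanamycin versus none on LB agar overnight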
PARTICULARS: 30 °C
VALUE_KIND: self-splicing fitness (ln)
Reply briefly: the number, and no unit.

// query For the sequence "AGACAGCAAUAUUACGCGAU" , report self-splicing fitness (ln).
// result -2.68

// query For the sequence "GAGCAGCAAUAUUACGUCAG" , report self-splicing fitness (ln).
// result -3.23

// query For the sequence "GUAGAGCAAUAUUACGGACU" , report self-splicing fitness (ln).
// result -1.4

// query For the sequence "UACCAGCAAUAUUACGUUGG" , report self-splicing fitness (ln).
// result -3.21

// query For the sequence "AUAGAGCAAUAUUACGAUCC" , report self-splicing fitness (ln).
// result -3.08

// query For the sequence "GAUGAGCAAUAUUACGCCCA" , report self-splicing fitness (ln).
// result -1.17

// query For the sequence "ACUCAGCAAUAUUACGUGUG" , report self-splicing fitness (ln).
// result -1.39

// query For the sequence "AUUUAGCAAUAUUACGAUAC" , report self-splicing fitness (ln).
// result -2.44

// query For the sequence "GCAGAGCAAUAUUACGAAUG" , report self-splicing fitness (ln).
// result -2.71

// query For the sequence "CCCGAGCAAUAUUACGAAGC" , report self-splicing fitness (ln).
// result -3.12

* * *

For each record, write down the corresponding self-splicing fitness (ln).
TEST: self-splicing fitness, log relative to wild type (ln ratio); higher = more splicing; Tetrahymena group I intron in knt gene, E. coli kanamycin selection, DiMSum; sequences stand for … in CUCUCU…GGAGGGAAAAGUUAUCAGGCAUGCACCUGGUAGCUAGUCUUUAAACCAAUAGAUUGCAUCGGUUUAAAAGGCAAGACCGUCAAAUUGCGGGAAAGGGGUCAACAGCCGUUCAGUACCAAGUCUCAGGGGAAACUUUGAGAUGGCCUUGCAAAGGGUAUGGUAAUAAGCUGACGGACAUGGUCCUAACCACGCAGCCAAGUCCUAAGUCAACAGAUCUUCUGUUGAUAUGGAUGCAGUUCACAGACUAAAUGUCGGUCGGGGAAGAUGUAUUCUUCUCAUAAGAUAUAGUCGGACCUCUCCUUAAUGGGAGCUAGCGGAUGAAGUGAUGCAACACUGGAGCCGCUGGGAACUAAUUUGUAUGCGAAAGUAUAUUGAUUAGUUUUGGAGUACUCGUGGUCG
PARTICULARS: 37 °C

// query For the sequence "UCGCAGCAAUAUUACGGUCA" , report self-splicing fitness (ln).
// result 0.119

// query For the sequence "GAAUAGCAAUAUUACGAAAG" , report self-splicing fitness (ln).
// result -2.55

// query For the sequence "UAUGAGCAAUAUUACGCAGG" , report self-splicing fitness (ln).
// result -2.34

// query For the sequence "AUCAAGCAAUAUUACGACCU" , report self-splicing fitness (ln).
// result -0.336

// query For the sequence "UGCCAGCAAUAUUACGUGUA" , report self-splicing fitness (ln).
// result -0.551

// query For the sequence "GAGGAGCAAUAUUACGAUAU" , report self-splicing fitness (ln).
// result -2.53

// query For the sequence "CUACAGCAAUAUUACGUUGU" , report self-splicing fitness (ln).
// result -3.95

// query For the sequence "UGGUAGCAAUAUUACGUACC" , report self-splicing fitness (ln).
// result -2.31

// query For the sequence "CAGGAGCAAUAUUACGCAAG" , report self-splicing fitness (ln).
// result -1.06

// query For the sequence "UGCCAGCAAUAUUACGACAC" , report self-splicing fitness (ln).
// result -2.68

// query For the sequence "UAGGAGCAAUAUUACGUUUG" , report self-splicing fitness (ln).
// result -1.25

// query For the sequence "UAUUAGCAAUAUUACGUGAG" , report self-splicing fitness (ln).
// result 0.0296

// query For the sequence "CCCAAGCAAUAUUACGUUUC" , report self-splicing fitness (ln).
// result -2.76

// query For the sequence "GGGGAGCAAUAUUACGUCAU" , report self-splicing fitness (ln).
// result -2.07

// query For the sequence "GUCUAGCAAUAUUACGAUUA" , report self-splicing fitness (ln).
// result 0.177

// query For the sequence "AGUAAGCAAUAUUACGUGUG" , report self-splicing fitness (ln).
// result -2.32

// query For the sequence "UUGCAGCAAUAUUACGGUAA" , report self-splicing fitness (ln).
// result -0.0317

* * *

For each record, write down the corresponding self-splicing fitness (ln).
TEST: self-splicing fitness, log relative to wild type (ln ratio); higher = more splicing; Tetrahymena group I intron in knt gene, E. coli kanamycin selection, DiMSum; sequences stand for … in CUCUCU…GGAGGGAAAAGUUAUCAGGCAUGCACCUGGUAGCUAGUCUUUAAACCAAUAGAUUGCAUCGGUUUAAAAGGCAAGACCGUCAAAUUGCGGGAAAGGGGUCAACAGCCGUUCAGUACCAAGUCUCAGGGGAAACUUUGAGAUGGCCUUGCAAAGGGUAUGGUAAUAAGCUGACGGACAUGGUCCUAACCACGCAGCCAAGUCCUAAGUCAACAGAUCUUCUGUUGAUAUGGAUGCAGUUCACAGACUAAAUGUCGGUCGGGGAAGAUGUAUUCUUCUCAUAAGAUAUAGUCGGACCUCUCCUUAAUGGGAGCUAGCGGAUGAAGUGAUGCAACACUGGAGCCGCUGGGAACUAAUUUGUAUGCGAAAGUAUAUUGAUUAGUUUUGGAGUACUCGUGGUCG
PARTICULARS: 30 °C
Reply briefly: the number, and no unit.

// query For the sequence "CCAAAGCAAUAUUACGCUCC" , report self-splicing fitness (ln).
// result -1.01

// query For the sequence "UUGCAGCAAUAUUACGAUUC" , report self-splicing fitness (ln).
// result -3.53

// query For the sequence "CUUAAGCAAUAUUACGAAUG" , report self-splicing fitness (ln).
// result -0.541

// query For the sequence "AGCGAGCAAUAUUACGAAGG" , report self-splicing fitness (ln).
// result -4.58

// query For the sequence "GGAAAGCAAUAUUACGUCGC" , report self-splicing fitness (ln).
// result -0.897

// query For the sequence "CAAGAGCAAUAUUACGGCGA" , report self-splicing fitness (ln).
// result -3.9

// query For the sequence "GAACAGCAAUAUUACGGCUC" , report self-splicing fitness (ln).
// result -0.329

// query For the sequence "CGUAAGCAAUAUUACGGGUC" , report self-splicing fitness (ln).
// result -4.24

// query For the sequence "AAUUAGCAAUAUUACGCAAA" , report self-splicing fitness (ln).
// result -1.96

// query For the sequence "CAUUAGCAAUAUUACGCAGU" , report self-splicing fitness (ln).
// result -3.73

// query For the sequence "ACCCAGCAAUAUUACGUGGG" , report self-splicing fitness (ln).
// result -3.34

* * *

TEST: self-splicing fitness, log relative to wild type (ln ratio); higher = more splicing; Tetrahymena group I intron in knt gene, E. coli kanamycin selection, DiMSum; sequences stand for … in CUCUCU…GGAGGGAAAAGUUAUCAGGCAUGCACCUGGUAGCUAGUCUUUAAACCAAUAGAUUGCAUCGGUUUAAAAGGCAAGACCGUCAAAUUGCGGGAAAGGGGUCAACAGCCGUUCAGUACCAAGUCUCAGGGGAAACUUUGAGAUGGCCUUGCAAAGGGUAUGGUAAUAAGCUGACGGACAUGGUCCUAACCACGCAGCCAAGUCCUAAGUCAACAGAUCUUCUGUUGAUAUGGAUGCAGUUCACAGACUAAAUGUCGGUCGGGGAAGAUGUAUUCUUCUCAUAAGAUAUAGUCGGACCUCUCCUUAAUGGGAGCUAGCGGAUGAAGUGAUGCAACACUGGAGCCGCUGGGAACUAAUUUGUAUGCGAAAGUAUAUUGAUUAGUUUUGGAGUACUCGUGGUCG
PARTICULARS: 37 °C
VALUE_KIND: self-splicing fitness (ln)

// query For the sequence "ACCCAGCAAUAUUACGCUGU" , report self-splicing fitness (ln).
// result -0.908

// query For the sequence "CGCGAGCAAUAUUACGCUUU" , report self-splicing fitness (ln).
// result -0.916

// query For the sequence "GCUAAGCAAUAUUACGGCCU" , report self-splicing fitness (ln).
// result -0.893

// query For the sequence "CGUAAGCAAUAUUACGUUAC" , report self-splicing fitness (ln).
// result -2.03
